Target under test: T1, hCMV glycoprotein B (gB; HEK293T transfectant) (hCMV, UniProt P06473 32-906)
T1 construct: whole, on cells; in the functional rows it stands for gB on virions or transduced cells of the strain or isolate named in the readout
T1 sequence (P06473 32-906 limits assumed): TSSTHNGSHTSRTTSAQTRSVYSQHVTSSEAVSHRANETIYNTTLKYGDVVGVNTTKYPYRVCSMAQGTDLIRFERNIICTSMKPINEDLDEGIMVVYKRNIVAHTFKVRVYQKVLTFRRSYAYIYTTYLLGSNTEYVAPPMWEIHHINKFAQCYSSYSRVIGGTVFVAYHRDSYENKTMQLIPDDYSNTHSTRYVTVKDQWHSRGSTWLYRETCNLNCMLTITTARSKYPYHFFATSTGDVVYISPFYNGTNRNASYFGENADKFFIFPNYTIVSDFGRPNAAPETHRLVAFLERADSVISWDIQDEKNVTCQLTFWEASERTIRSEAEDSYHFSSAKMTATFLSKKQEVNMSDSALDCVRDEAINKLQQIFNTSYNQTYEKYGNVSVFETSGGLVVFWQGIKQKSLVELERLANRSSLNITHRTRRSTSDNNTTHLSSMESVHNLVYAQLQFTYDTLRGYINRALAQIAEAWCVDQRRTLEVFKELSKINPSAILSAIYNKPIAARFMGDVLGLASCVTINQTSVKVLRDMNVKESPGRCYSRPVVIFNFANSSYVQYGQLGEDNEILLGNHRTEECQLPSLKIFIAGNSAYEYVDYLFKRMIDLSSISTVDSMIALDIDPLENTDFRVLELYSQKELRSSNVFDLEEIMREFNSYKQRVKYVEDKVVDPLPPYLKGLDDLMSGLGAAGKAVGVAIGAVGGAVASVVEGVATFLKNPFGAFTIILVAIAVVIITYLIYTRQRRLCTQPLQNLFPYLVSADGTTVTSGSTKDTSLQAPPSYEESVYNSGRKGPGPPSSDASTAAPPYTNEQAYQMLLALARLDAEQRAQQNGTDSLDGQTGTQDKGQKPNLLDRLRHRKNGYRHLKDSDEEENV
Experimental details: cell competition; competitor 10C6-biotin
Reported endpoint: Inhibition of binding (%)

Quick check: Inhibition of binding (%) of 4H9 (antibody, V domains shown, human IgG; also called 4H9-biotin; 4H9.6) VH: AVQLVESGGGLVRPGGSLRLSCAASGFTFSSHEMHWVRQAPGKGLEWLSYIDFTGSIIYYADSVRGRFTISRDNTKKSLFLQMNSLRDEDTALYYCARDGGRWGTSWYYFDYWGQGVLVTVSS VL: QSVLTQPPSVSGAPGQRVTITCTGSSSNFGAGYDGHWYQQLPGTAPKLLIYGSNRPSGVPDRFSGSKSGTSVSLAITGLQADDEADYYCQSYDSSLSAWVFGGGTKLTVL ?
100%

Here is the next binder: 6B4 (antibody, V domains shown, human IgG; also called 6B4-biotin) VH: QVQLVESGGGVVQPGRSLRLSCAASGFRFNEFNMHWVRQAPGKGLEWVAVISIDGRHKYNADSVEGRFTISRDNSRNTLYLQMNSLRVEDTALYYCVTDGKAVDGFSGILEFWGQGTPVTVST VL: EIVLTQSPATLSLSPGERATLSCWASQSVGGYLAWYQQKPGQAPRLLIYDASIRATGIPARFSGSGSGTHFTLTINSLEPEDFAVYYCQQRNNWPPLTFGGGTKVEIK
0%

Here is the next binder: 10C6 (antibody, V domains shown, human IgG; also called 10C6-biotin; 1006) VH: AVQLVESGGGLAQPGRSLRLSCKVSGFSFSNFEMNWVRQAPGKGLEWIAYIDFTGSTIYYSDSVKGRFTISRDTARNSLYLQMNKLRVEDTAVYYCVRDAGRWGTSWYYFDYWGQGTLVTVSS VL: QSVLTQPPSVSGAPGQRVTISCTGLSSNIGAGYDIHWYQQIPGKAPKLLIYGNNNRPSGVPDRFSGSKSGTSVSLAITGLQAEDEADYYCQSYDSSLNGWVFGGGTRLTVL
100%

Here is the next binder: 2B11 (antibody, V domains shown, human IgG; also called 2B11-biotin) VH: AVRLVESGGGLAQPGRSLRLSCQVSGFTFGSYEMNWVRQAPGKGLEWIAYIDFTGSTIYYADSVKGRFTISRNTARNSLYLQMNSLRVEDTAVYYCVRDAGRWGTSWYYFDYWGQGTRVTVSP VL: QSVLTQPPSVSGAPGQRVTISCTGISSNIGAGYDIHWYQQIPGKAPKLLVYGNNNRPSGVPDRFSGSKSGTSVSLAITGLQVEDEADYYCQSYDNSLNGWVFGGGTRLTVL
100%

Here is the next binder: 7H3 (antibody, V domains shown, fully human IgG1 with unaltered Fc; also called 7H3-biotin; LJP538) VH: QVQLVQSGAEVKNPGASVKVSCKASGYTFTDYYIHWVRQAPGQGLEWMGWFNPNSGGTNFVQNFQGRVTMTRDTSISTAYMELSRLRSDDTAMYYCAKDSAKTASAYYGLNFFYYGMDVWGQGTTVTVSS VL: QSVLSQPPSASGTPGQRVTISCSGSSSNIGKNYVYWYQQVPGTAPKLLMFKNNQRPSGVPDRFSGSKSGTSASLAISGLRSEDEADYYCSAWDGSLSRPLFGGGTKVTVL
0%

Here is the next binder: 5F1 (antibody, V domains shown, human IgG; also called 5F1-biotin) VH: AVQLVESGGGLAQPGRSLRLSCKVSGFTFSSYEMNWVRQAPGKGLEWIAYIDFTGSTIYYADSVKGRFTISRDTARNSLYLQMNKLRVEDTAVYYCVRDAGRWGTSWYYFDYWGQGTLVTVSS VL: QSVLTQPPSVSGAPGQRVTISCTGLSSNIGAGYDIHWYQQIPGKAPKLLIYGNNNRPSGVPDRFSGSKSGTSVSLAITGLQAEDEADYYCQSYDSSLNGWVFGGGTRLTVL
100%
